Biological target: UniProtKB P06401
Sequence (P06401 1-769 isoform P06401-2): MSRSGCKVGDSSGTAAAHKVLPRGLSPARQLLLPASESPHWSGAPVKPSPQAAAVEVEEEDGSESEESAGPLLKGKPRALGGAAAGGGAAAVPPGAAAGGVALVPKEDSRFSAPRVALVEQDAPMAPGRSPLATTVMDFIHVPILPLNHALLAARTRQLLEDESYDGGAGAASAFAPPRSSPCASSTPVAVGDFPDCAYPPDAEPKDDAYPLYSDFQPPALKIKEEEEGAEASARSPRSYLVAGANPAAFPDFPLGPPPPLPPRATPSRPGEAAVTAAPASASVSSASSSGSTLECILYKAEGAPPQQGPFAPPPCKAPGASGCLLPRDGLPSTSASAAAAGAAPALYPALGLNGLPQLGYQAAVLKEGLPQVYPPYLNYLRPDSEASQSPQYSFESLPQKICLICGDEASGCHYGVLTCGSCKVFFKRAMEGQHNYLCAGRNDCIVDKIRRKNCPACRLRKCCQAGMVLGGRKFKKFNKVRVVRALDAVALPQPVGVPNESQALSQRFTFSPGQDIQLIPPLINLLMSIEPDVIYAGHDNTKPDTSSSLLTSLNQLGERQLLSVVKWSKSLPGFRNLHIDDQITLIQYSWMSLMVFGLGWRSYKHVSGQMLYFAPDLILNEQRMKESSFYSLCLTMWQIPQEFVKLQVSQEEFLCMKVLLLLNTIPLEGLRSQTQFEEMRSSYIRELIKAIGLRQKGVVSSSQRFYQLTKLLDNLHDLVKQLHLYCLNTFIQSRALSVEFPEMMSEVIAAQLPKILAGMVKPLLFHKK
Assay: Progesterone receptor antagonistic effect in stably transfected SK-N-MC cells, MTV-LUC reporter (PR-A)
Details: antagonism of 0.1 nmol/l promegestone, luciferase reporter, 24 hours
ENDPOINT_NAME: pIC50
pIC50 here is simply -log10 of the concentration when that concentration is written in mol/L.

The examples below pair each entry with its known result.
>>> value_measured("COc1cccc(NCc2ccc([C@H]3C[C@@]4(C)[C@@H](CC[C@@]4(O)C(F)(F)C(F)(F)F)[C@@H]4CCC5=CC(=O)CCC5=C43)cc2)c1")
8.60
>>> value_measured("CN(CCc1ccccc1)Cc1ccc([C@H]2C[C@@]3(C)[C@@H](CC[C@@]3(O)C(F)(F)C(F)(F)F)[C@@H]3CCC4=CC(=O)CCC4=C32)cc1")
8.25
>>> value_measured("C[C@]12C[C@H](c3ccc(CNc4ccc(C(=O)Nc5ccccc5)cc4)cc3)C3=C4CCC(=O)C=C4CC[C@H]3[C@@H]1CC[C@@]2(O)C(F)(F)C(F)(F)F")
8.89

Switching to the query record.
Endpoint output: pIC50 of "CN(CCc1ccccn1)Cc1ccc([C@H]2C[C@@]3(C)[C@@H](CC[C@@]3(O)C(F)(F)C(F)(F)F)[C@@H]3CCC4=CC(=O)CCC4=C32)cc1" . Value? 8.19
